Ref: patent US20070077617

# Measured target: fusion protein PRD
# Sequence (chain, as listed by the source): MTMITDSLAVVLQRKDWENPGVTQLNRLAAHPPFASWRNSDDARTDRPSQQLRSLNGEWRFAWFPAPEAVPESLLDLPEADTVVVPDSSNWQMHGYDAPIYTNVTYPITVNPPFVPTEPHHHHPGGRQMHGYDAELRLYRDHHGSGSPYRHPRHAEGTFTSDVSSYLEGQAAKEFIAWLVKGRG

Protein	relative cleavage efficiency
OmpT protease variant OmpT D97N (protein) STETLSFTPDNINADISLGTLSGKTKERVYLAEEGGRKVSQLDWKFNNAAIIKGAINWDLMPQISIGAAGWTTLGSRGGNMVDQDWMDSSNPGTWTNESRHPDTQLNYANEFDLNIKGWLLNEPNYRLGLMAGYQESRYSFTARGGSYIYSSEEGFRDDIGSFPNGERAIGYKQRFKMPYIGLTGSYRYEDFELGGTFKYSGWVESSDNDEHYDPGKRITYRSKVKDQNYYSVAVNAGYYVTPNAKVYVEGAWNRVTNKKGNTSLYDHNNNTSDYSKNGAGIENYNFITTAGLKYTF	less than 3%
OmpT protease variant OmpT D97H (protein) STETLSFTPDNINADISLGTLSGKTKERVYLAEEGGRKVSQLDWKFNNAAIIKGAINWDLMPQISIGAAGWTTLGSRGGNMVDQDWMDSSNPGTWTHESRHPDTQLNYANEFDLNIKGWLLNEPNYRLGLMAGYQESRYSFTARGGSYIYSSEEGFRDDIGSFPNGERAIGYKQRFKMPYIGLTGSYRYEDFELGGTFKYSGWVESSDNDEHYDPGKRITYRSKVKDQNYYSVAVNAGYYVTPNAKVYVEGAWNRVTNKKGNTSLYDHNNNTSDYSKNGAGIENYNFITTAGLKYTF	less than 3%
